The reported numbers originate from PubChem BioAssay (NCI).

Reported growth inhibition is given for each of the following compounds.
- experimentalDetails: NCI Yeast Anticancer Drug Screen. Data for the mlh1 rad18 strain (AID 175)
- studyConditions: S. cerevisiae mlh1 rad18 strain growth inhibition; at 50.0 µM; active compounds read high
The panel holds about 79,000 compounds, 15% with a hit somewhere; the sample as a whole holds those more often.
measuredEndpoint: growth inhibition (%)

• COC(=O)c1c(C)cc(C)c(C(C)=O)c1O = -16.1
• Cc1csc(=S)n1C = 0.4
• CCOC(=O)c1c(N)sc2c1C(C(=O)OCC)CC2 (stereo not drawn) = 19.9
• O=C(Nc1ccc(C(F)(F)F)cc1)NC(F)(F)F = -46.3
• N=C1CCCC1C(=S)SCCC(N)=O (stereo not drawn) = 6.15
• O=[N+]([O-])c1ccc(S(=O)(=O)SC(F)(F)F)cc1 = 11.3
• C=CCCCCCCCCC1OCC(CC)C(CCC)O1 (stereo not drawn) = 39.3
• Cc1ccc(NC(=O)Oc2ccccn2)cc1 = -6.25
• CCN(CC)CCOc1ccc(N2Cc3cc(OC)c(OC)cc3C2=O)cc1 = -13.8
• COCCN(CCOC)C1C2=C(CCCC2)OS(=O)(=O)C1c1ccccc1 (stereo not drawn) = 0.05
• C=C1c2nc3ccccc3n2C=C(c2ccc(Cl)cc2)N1c1ccccc1 = 33.5
• Cc1ccc(NCC#N)cc1 = 36.5
• C=CCNCc1cc(Cl)cc(Cl)c1O = 17.2
• Cc1nn(C(=O)c2ccccc2O)c2c1C(c1ccccc1)SC(N)=N2 (stereo not drawn) = 9.3
• CSc1nc(N)cc(Cl)n1 = -9.7
• CC(C)OC(=O)Oc1ccc(Cl)cc1 = 9.8
• CCc1[nH]c2ccc(C)cc2c1C(=O)c1cccnc1 = 7.6
• CCCCC(SC(CC)(CC)C(N)=O)C(N)=O (stereo not drawn) = -5.6

====

- experimentalDetails: NCI Yeast Anticancer Drug Screen. Data for the bub3 strain (AID 167)
- studyConditions: S. cerevisiae bub3 mutant strain, at 50.0 µM, active compounds read high
This is part of a sample that, as a whole, favours compounds with a hit. Of some 79,000 tested, about 15% had one in any assay.
Measured growth inhibition by item
measuredEndpoint: growth inhibition (%)

- CC(=O)CC(C)(C)c1cc(CC(C)(C)C(N)=O)on1: 11.3
- O=C(O)C1C2OC3C(OC(=O)C31)C2Cl (stereo not drawn): -6.5
- CCOC(CN=CC1CCC=CO1)OCC (stereo not drawn): -1.5
- Cc1cc(N(CCC#N)CCC#N)ccc1N=Nc1cccc(C(=O)O)c1: -33.8
- O=C(Oc1ccco1)c1ccc([N+](=O)[O-])cc1: 0.1
- O=C(Nc1ccccc1Cl)NC1CCCCC1: 17.1
- O=C(O)c1ccc(/C=N/NC(=S)Nc2cccc3cccnc23)cc1: 10.2
- CCOC(=O)CCC[Si](CC)(CC)CC: -15
- CN=C(NC#N)NCCSCc1nc[nH]c1C: -16.6
- CCCCCC(C)(O)CCCCC: 18.3
- CCOc1cc([N+](=O)[O-])c(OCC)cc1Cl: -17.6
- Cc1c(C#N)c2n(c1C)CCN2: -5.65
- Nc1cc2c3c(cccc3c1Br)C(=O)OC2=O: 99.7
- COC(=O)CCc1cc(=O)oc2ccc3cc(CC(=O)OC)oc3c12: -7.2
- CCOC(=O)c1c(N2CCCC2)ncn(Cc2ccccc2)c1=S: 8.3
- CC(=O)NC(Cc1ccc(OC(C)=O)c(OC(C)=O)c1)C(C)=O (stereo not drawn): -10.6
- O=C1CC(N2C(=O)C3C4CCC(O4)C3C2=O)C(=O)N1 (stereo not drawn): 7.95
- SC1(S)CCCN(Cc2ccccc2)C1: 44
- CCN(CC)CCCC(C)=O: 13
- COc1ccc2c(c1)C=C(C(C)(C)C)NS2(=O)=O: 59
- O=C1c2ccccc2C2(O)Nc3c(ccc4ccccc34)C12O (stereo not drawn): -16.9
- Cc1ccc(S(=O)(=O)N/N=C2\C3CC4CC(C3)C2C4)cc1 (stereo not drawn): -6.25
- Cc1cc(O)c(/C=N/C(=O)NN)c(=O)o1: -22.5
- C=CCOc1c(C)cc(C(N)=O)cc1C: 5.45
- Oc1ccccc1C1SCSCS1: -10.4
- S=C(NNC(=S)Nc1ccccc1)Nc1ccccc1: -5.4
- COc1ccc(C2CC(=O)Oc3cc4c(cc32)OCO4)cc1 (stereo not drawn): -2.2
- N#Cc1ccc(CCc2ccc(Cl)cc2)cc1: 1.3
- COC(=O)CCc1c[nH]c2ccc(N)cc12: -14.5
- COC(=O)c1ccccc1-n1c(-c2ccc([N+](=O)[O-])cc2)csc1=NC(=O)c1cccc([N+](=O)[O-])c1: -1.15
- CCCS(=O)(=O)N1CCC(C)CC1: -8.55
- CCN(CC)C(=O)CNC(=O)C(c1ccccc1)c1ccccc1: 6.35
- CC1=C(O[Si](C(C)C)(C(C)C)C(C)C)C2CC1[C@@H]1C(=O)N(c3ccccc3)C(=O)[C@H]21 (stereo partly drawn): -15.6
- NC(=O)COc1ccc(Cl)cc1Cl: 5.7
- Cc1cccc(O)c1: -4.65
- O=c1cc(-c2cccc(OC(F)(F)F)c2)[nH]c2cc3c(cc12)OCO3: 19.7
- CCSc1ncnc2nc[nH]c12: -9.55
- O=C1C[C@H]2CCCC[C@@H]2O1: -13.5

====

- experimentalDetails: NCI Yeast Anticancer Drug Screen. Data for the bub3 strain (AID 167)
- studyConditions: S. cerevisiae bub3 mutant strain, at 50.0 µM
About 79,000 compounds went through this panel and 15% of them were active in at least one assay; those are over-represented in the sample as a whole. Calls of active or inactive are those of the source. No stated cut-off is given here; in the data, active means growth inhibition above about 70%; inactive means the rest.
Outcomes: active, inactive

• O=[N+]([O-])c1ccc(-n2cnc3c(Cl)ncnc32)cc1 = inactive
• CSc1nc2c(nc(N)n2C2OC(CO)C(O)C(O)C2O)c(=O)n1C (configuration not stated) = inactive
• c1ccc(C2=C(c3ccccc3)CSSC2)cc1 = inactive
• CCC(CO)(C(=O)O)c1ccccc1 (configuration not stated) = inactive
• CCOC(=O)/C(C#N)=C/NCC1CC1 = inactive
• NC(=S)N/N=C(\Cc1nc2ccc(Cl)cc2[nH]c1=O)C(=O)Nc1ccc(Cl)cc1 = inactive
• COc1ccccc1C(C)C = inactive
• O=C(O)c1cc(CC2Cc3cc4c(cc3C2=O)CCC4)cc2c1CCC2 (configuration not stated) = inactive
• COC(=O)C(=O)c1c(C(=O)OC)nc2[nH]n(-c3ccccc3)c(=O)c2c1Cc1ccccc1 = inactive
• CC(=O)C1(O)CCC2C3CCC4CC(=O)CCC4(C)C3C(=O)CC21C (configuration not stated) = inactive
• N#CSc1nc[nH]c1C(N)=O = inactive
• Cc1c(F)c(F)c(-c2c(F)c(F)c(C)c(F)c2F)c(F)c1F = inactive
• COc1cc(O)c(C(C)=O)c(O)c1O = inactive
• Fc1ccc2c(c1)Nc1ccccc1S2 = inactive
• CCCCc1ccc(N=Nc2ccccc2)cc1 = inactive
• NC(C(=O)O)c1ccccc1C(=O)O (configuration not stated) = inactive
• CC(=O)C(N=Nc1nc2ccccc2[nH]1)C(C)=O = inactive
• O=C(/C=C/c1ccccc1)OCCCl = inactive
• COc1cc2c(cc1OC)C1=Cc3cc(OC)c(OC)cc3C(C)N1C=C2 (configuration not stated) = inactive
• O=[N+]([O-])C(C=C(n1nnc2ccccc21)n1nnc2ccccc21)=C(n1nnc2ccccc21)n1nnc2ccccc21 = inactive
• CC(C)NCCN = inactive
• Cc1cccc(Cl)c1OCC(=O)O = inactive
• C=C(C)C(C)(C)/C(C)=N\Nc1ccc([N+](=O)[O-])cc1[N+](=O)[O-] = inactive
• CCN(CC)C(=O)c1cncc(C(N)=O)c1 = inactive
• COc1ccc(N=C2S/C(=N\C(=Nc3ccccc3)SCc3ccccc3)N(c3ccccc3)C2=Nc2ccc(OC)cc2)cc1 = inactive
• O=C(N=Nc1c(O)[nH]c2ccc(Br)cc12)c1ccco1 = inactive
• O=C1CN(/N=C/c2ccc(-c3cccc(C(F)(F)F)c3)o2)C(=O)N1 = inactive
• Nc1c(O)cccc1C(=O)O = inactive
• CC1(C)CC(C(N)=O)C(C)(C)N1O (configuration not stated) = inactive
• N#CC(=O)Nc1ccc(Cl)c(Cl)c1 = inactive
• C[N+](C)(C)CCCOC1=Nc2ccccc2O/C1=C/c1ccccc1 = inactive
• O=C(O)c1ccc(OS(=O)(=O)c2ccccc2)cc1 = inactive
• O=C(NC(=O)c1ccc([N+](=O)[O-])cc1)Nc1ccccc1 = inactive
• c1ccc(-c2nc3ccccc3nc2SCc2cccnc2)cc1 = inactive
• CCOc1cc(/C=N/NC(=O)c2ccccc2NC(=O)c2ccccc2)ccc1OC = inactive
• Cc1ccc2c(=O)cc(-c3cccc(F)c3)[nH]c2n1 = inactive
• CCOc1cc2c(cc1O)/C(=N\O)C[C@@H]1[C@@H]2CC[C@]2(C)[C@@H](O)CC[C@@H]12 = inactive
• CCCCCCC1N(C(C#N)c2ccccc2)CCCN1C(C#N)c1ccccc1 (configuration not stated) = inactive
• Cc1ccc(S(=O)(=O)N(CCOc2c3occc3cc3ccc(=O)oc23)CCN(CCN(CCOc2c3occc3cc3ccc(=O)oc23)S(=O)(=O)c2ccc(C)cc2)S(=O)(=O)c2ccc(C)cc2)cc1 = inactive
• CCN(CC)CCNc1ccc(OC)c2sc3ccccc3c(=O)c12 = inactive
• Cc1ccc(C)c(NS(=O)(=O)c2ccc(Cl)c([N+](=O)[O-])c2)c1 = active
• CCCN(CCC)c1ccc(C(=O)c2ccccc2)cc1 = inactive
